Data credit: PubChem BioAssay (NCI)

Test system: SK-MEL-2 melanoma
Test: NCI-60 one-dose screen, 48 h (100 = growth as untreated, 0 = no growth, -100 = all killed)
Conditions: 10 µM unless noted
Protocol: Growth inhibition of the SK-MEL-2 human tumor cell line is measured as a screen for anti-cancer activity. Cells are grown in 96 well plates and exposed to the test compound for 48 hours. Compounds are tested at a single concentration, which is 10^-5 M for most compounds. The reported endpoint is percent growth (GI% or GIPRCNT), where numbers from 0 - 100% represent growth inhibition, and numbers from -100% - 0 represent cell death. For example, a value of 40 represents 60% growth inhibition. […]
Compounds without any hit were thinned out: in the full panel of roughly 83,000, 20% have a hit.
Below: a set of entries, each annotated with reported growth.
A number alone suffices; assume %.

# annotated cases, reported growth shown
O=C1/C(=C/c2ccc([N+](=O)[O-])s2)Oc2ccc(Br)cc21 ... -62.2
N#Cc1cccc(/C=C(/C(=O)c2ccccc2)c2ccccc2)c1 ... 34.5
CCC1=C(c2ccc(OC)cc2)C(C)(C)Oc2c1ccc(O)c2CN1CCCC1 ... -58.5
Cc1cc(NC(=O)Nc2cccc3ccccc23)no1 ... 101

Would you kindly look at the next entry?
Reported growth of `COc1cc(-c2cc(C(=O)Nc3nc4ccccc4s3)nc3cc(-c4ccccc4)nn23)cc(OC)c1OC` : 73.7
